- Test system: MDA-MB-435
- protocol-details: NCI tumour cell line growth inhibition, 48 h
assay-endpoint: TGI

The compound listed as Nc1ncc(Cl)c(NCC2(CO)CC(CCc3ccccc3)C2)n1 (centres undefined) has a reported TGI of > 100 µM

Recorded result, CCCCc1ccc(Nc2nc(=S)c3[nH]cnc3[nH]2)cc1 , TGI: 48.1 µM

# TGI (compound: O=C(C[n+]1ccccc1)N/N=C(\Cc1nc2ccc([N+](=O)[O-])cc2[nH]c1=O)C(=O)Nc1cc(Cl)c(Cl)cc1Cl ) is > 100 µM

Short answer for CCOC(=O)c1sc(N/N=C2\NC(=O)/C(=C/c3ccc([N+](=O)[O-])cc3)S2)nc1C : TGI was 77.3 µM

Entry CCOC(=O)Cc1csc2[n+]1C(=O)/C(=C/c1cccc(OC)c1O)S2 — recorded TGI = 50.5 µM

The measured TGI associated with Cc1nc(C(N)=S)sc1C(/C=C/c1ccc(Cl)c(Cl)c1)=N/NC(C)(C)C reads > 100 µM

// sample N#CC(C#N)=C(N)/C(C#N)=C/c1ccc2ccccc2n1 , its TGI was > 100 µM

Value of measured TGI for the entry COc1cc(C(=O)O[C@@H]2[C@@H](OC(=O)c3cc(OC)c(OC)c(OC)c3)[C@@H](OC)O[C@@H]3CO[C@@H](c4ccccc4)O[C@@H]23)cc(OC)c1OC : > 100 µM

Looking up C/C=C1/CN2CCC3(O)c4ccccc4N4C=C(C(=O)OC)C1CC2C43O (centres undefined) , I see its TGI listed as > 100 µM

###

- Tested on: T-47D breast
- protocol-details: NCI tumour cell line growth inhibition, 48 h; in the data active means GI50 below about 0.43 µM; inactive means the rest
Thanks in advance; please answer with one of these: active, inactive

Check the results log: what was the call for COc1ccc(-c2nc(C(=O)c3ccccc3)n(CC(=O)c3ccccc3)c2-c2ccc(OC)cc2)cc1 ?
inactive

Entry CN(C)C/C=C/C(=O)Nc1cc2c(Nc3ccc(F)c(Cl)c3F)ncnc2cc1OCCOC(F)F : call = ?
active

Assay outcome for O=[N+]([O-])c1ccccc1NC1c2ccccc2Oc2ccccc21 : what was it?
inactive

Which outcome was assigned to O=C(Nc1ccccc1O)c1ccc(CNc2ccnc(C(F)(F)F)c2)cc1 in this test?
inactive

# outcome recorded in this test, key = N#CC(C#N)N=Nc1ccc(Br)cc1
inactive

Fill in: this test's call for C[C@@H]1Cc2c([nH]c3ccccc23)[C@@H](c2c(F)cc(NC3CN(CCCF)C3)cc2F)N1CC(F)(F)CO is ___
inactive

Which outcome did this test record for the compound COC(=O)c1c(O)c([N+](=O)[O-])cc2c1c1c(n2Cc2ccccc2)C(=O)c2ccccc2C1=O ?
inactive

Fill in: this test's call for COc1cc2c3c(n(CCCNCCCNCCCNCCCN)c(=O)c2cc1OC)-c1cc2c(cc1C3=O)OCO2 is ___
inactive

Entry CN1C(=O)[C@@H](NC(=O)[C@H](CCC(F)(F)F)[C@H](CCC(F)(F)F)C(N)=O)N=C(c2ccccc2)c2ccccc21 : call = ?
inactive

###

Assignment: determine reported TGI for the given compounds.
- System: XF 498 CNS
- protocol-details: NCI tumour cell line growth inhibition, 48 h

The compound identified as COC(=O)CCC(=O)Nc1cc(Cl)ccc1Cl registered its TGI at > 100 µM

Noted for Cc1ccc(C2NC(=O)c3ccccc3N2)s1 (centres undefined) : its TGI reads 19 µM

Looking up CS(=O)(=O)c1c(N)c2nc(Cl)cn2c2nc3ccccc3nc12 , I see its TGI listed as > 100 µM

CC1(C)OB(O)OC1(C)C yielded TGI of > 100 µM

The recorded TGI for CC(C)(C)NC(=O)NC12CC3CC(CC(F)(C3)C1)C2 is > 100 µM

The value of TGI measured for the compound COc1ccc(C(=O)C(c2ccc(OC)cc2)C2OC(=O)C(Cl)=C2Cl)cc1 (centres undefined) turned out to be > 100 µM

Looking up CC(=O)C1C(=O)NC(=O)C1=O (centres undefined) , I see its TGI listed as > 100 µM

Record O=S(=O)(N/N=C/c1cccc(Cl)c1Cl)c1ccccc1 . Reported TGI: > 100 µM

Note to self: TGI recorded for O=C(c1ccccc1)c1oc2ccc(Br)cc2c1-c1cnn(-c2ccccc2)c1 was > 100 µM

So for CCCCCCCC/C=C\CCCCCCCC(=O)O , the logged TGI turned out to be 13.6 µM

So, CN(C)CCNC(=O)c1cccc2c(Nc3ccc(S(N)(=O)=O)cc3)c3ccccc3nc12 ? Its TGI was 1.81 µM

Memo: CC(=O)OC1CC2Oc3ccc(C)cc3C(C)(O2)C1=O (centres undefined) , reported TGI: > 100 µM

In plain terms, CN(C)/N=C(/c1nc2ccc([N+](=O)[O-])cc2[nH]c1=O)C(O)c1ccco1 (centres undefined) has a documented TGI of > 100 µM

Recorded TGI (compound COC(=O)c1cccc(N[C@@H]2c3cc4c(cc3C(c3cc(OC)c(O)c(OC)c3)[C@H]3C(=O)OCC32)OCO4)c1 (some centres undefined) ): > 27.4 µM

Origin of measurements: PubChem BioAssay (NCI)
